Each item that follows carries a reported % specific cytotoxicity @ 6.67 nM, NUGC4-CLDN18.2, PBMC.
target-entity: human Claudin 18.2 (CLDN18.2) (human, UniProt P56856-2 1-261)
assay-text: cell-based or functional assay
measured-property: % specific cytotoxicity @ 6.67 nM, NUGC4-CLDN18.2, PBMC

binder	meas-value
413H9F8-H1L3 (antibody, V domains shown, humanized IgG; constant regions not specified) VH: EVQLVESGGGLVQPGGSLRLSCAASGFTFSSFGMHWVRQAPGKGLEWVSYISSGSSPIYYVDKLKGRFTISRDNAKNSLYLQMNSLRAEDTAVYYCARAGYAVRNALDYWGQGTLVTVSS VL: DIVMTQSPDSLAVSLGERATINCKSSQSLLNVGNQKNYLAWYQQKPGQPPKLLIYGASTRESGVPDRFIGSGSGTDFTLTISSLQAEDVAVYFCQNDLFYPLTFGGGTKVEIK	34.6%
413H9F8-H2L1 (antibody, V domains shown, humanized IgG; constant regions not specified) VH: EVQLVESGGGLVQPGGSLRLSCAASGFTFSSFGMHWVRQAPGKGLEWVAYISSGSSPIYYVDKLKGRFTISRDNAKNSLYLQMNSLRAEDTAVYYCARAGYAVRNALDYWGQGTLVTVSS VL: DIVMTQSPDSLAVSLGERATINCKSSQSLLNVGNQKNYLAWYQQKPGQPPKLLIYGASTRESGVPDRFSGSGSGTDFTLTISSLQAEDVAVYYCQNDLFYPLTFGGGTKVEIK	34.3%
